Each recorded value in this set is attributed to PubChem BioAssay (EPA / NIEHS).

# ASSAY_PROCEDURE: Tanguay_ZF_120hpf_MORT_legacy: (Legacy) Oregon State University Tanguay Lab 120 Hour Post-fertilization zebrafish Assay for Mortality (AID 2283633)
Active and inactive are the calls of the source. The calls were made as follows: active = hit-call score of the fitted dose curve at least 0.9, where 1 is the maximum; inconclusive = response in the unintended direction; inactive = score below 0.9.
Possible outcomes: 1 = active, 0 = inactive

[[record]]
smiles_input = "CCO[Si](CCCNC(N)=O)(OCC)OCC"
answer_label = 0

[[record]]
smiles_input = "CCCCCCCCOC(=O)c1cc(O)c(O)c(O)c1"
answer_label = 1

[[record]]
smiles_input = "CCCCCCCC[Si](OCC)(OCC)OCC"
answer_label = 0

[[record]]
smiles_input = "CC(=O)N1CCN(c2ccc(OC[C@H]3CO[C@](Cn4ccnc4)(c4ccc(Cl)cc4Cl)O3)cc2)CC1"
answer_label = 0

[[record]]
smiles_input = "CC[C@@H]1C[C@H](N(Cc2cc(C(F)(F)F)cc(C(F)(F)F)c2)C(C)=O)c2cc(C(F)(F)F)ccc2N1C(=O)OC(C)C"
answer_label = 0

[[record]]
smiles_input = "O=c1c(-c2ccc(O)cc2)coc2cc(O)cc(O)c12"
answer_label = 1

[[record]]
smiles_input = "Clc1cc(Cl)c2c(c1)N=C1CCCCCN1C2"
answer_label = 0

[[record]]
smiles_input = "Cc1occc1C(=O)Nc1ccc(C(=O)N2CCC(F)(F)/C(=C\\C(=O)N3CCC(N4CCCCC4)CC3)c3ccccc32)cc1"
answer_label = 0

[[record]]
smiles_input = "Cc1cc(F)ccc1-c1cc(N2CC[C@@H](O)[C@H]2CO)ncc1N(C)C(=O)C(C)(C)c1cc(C(F)(F)F)cc(C(F)(F)F)c1"
answer_label = 0

[[record]]
smiles_input = "CC(C)(O)c1ccc(CNC(=O)c2cccnc2Oc2ccc3nonc3c2)cc1"
answer_label = 0


---

# ASSAY_PROCEDURE: CCTE_Shafer_MEA_acute_synchrony_index: CCTE's Neural Acute Assay for Synchrony, Shafer Lab (AID 2284027);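 also: network synchrony index of spontaneous spiking in primary rat cortical neurons on MEAs; fitted for loss of signal so actives lower synchrony relative to DMSO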
Active and inactive are the calls of the source. Rule for the calls: active = hit-call score of the fitted dose curve at least 0.9, where 1 is the maximum; inactive = score below 0.9.
Possible outcomes: 1.0 = active, 0.0 = inactive

[[record]]
compound = "CCCCCCCCOC(=O)c1cc(O)c(O)c(O)c1"
answer_label = 1.0

[[record]]
compound = "COc1cc(C(=O)NC2CCN(C)CC2)ccc1Nc1ncc2c(n1)N(C1CCCC1)CC(F)(F)C(=O)N2C"
answer_label = 1.0

[[record]]
compound = "Clc1ccccc1C(c1ccccc1)(c1ccccc1)n1ccnc1"
answer_label = 1.0

[[record]]
compound = "CC/C(=C(/CC)c1ccc(O)cc1)c1ccc(O)cc1"
answer_label = 1.0

[[record]]
compound = "COc1cccc([C@H](O)C2CCN(CCc3ccc(F)cc3)CC2)c1OC"
answer_label = 0.0

[[record]]
compound = "C[C@]12CC[C@@H]3c4ccc(O)cc4CC[C@H]3[C@@H]1CC[C@H]2O"
answer_label = 0.0

[[record]]
compound = "CC(C)(C)c1cc(/C=C2\\SC(N)=NC2=O)cc(C(C)(C)C)c1O"
answer_label = 0.0

[[record]]
compound = "CN(C)C(=O)C1(N2CCCCC2)CCN(CC[C@@]2(c3ccc(Cl)c(Cl)c3)CN(C(=O)c3ccccc3)CCO2)CC1"
answer_label = 1.0

[[record]]
compound = "CC[C@@H]1C[C@H](N(Cc2cc(C(F)(F)F)cc(C(F)(F)F)c2)C(C)=O)c2cc(C(F)(F)F)ccc2N1C(=O)OC(C)C"
answer_label = 1.0

[[record]]
compound = "CN(C)c1ccc(C(=C2C=CC(=[N+](C)C)C=C2)c2ccc(N(C)C)cc2)cc1"
answer_label = 1.0

[[record]]
compound = "OC12N=C(c3ccccc3)SC1Cc1cc(Cl)ccc12 (stereo not given)"
answer_label = 1.0

[[record]]
compound = "CCN(CC)C(=O)c1cc(S(=O)(=O)Cc2ccccc2)c(N2CCC(c3ccccc3)CC2)cc1N(CC)CCN(C)C"
answer_label = 1.0

[[record]]
compound = "CN1C(=O)CC[C@H]1c1cccnc1"
answer_label = 0.0

[[record]]
compound = "Cc1cc2c(cc1C(F)(F)F)N(C(=O)Nc1ccc(Oc3cccnc3C)nc1)CC2"
answer_label = 0.0

[[record]]
compound = "NC(=O)c1nc(-c2cccc(-c3cc(F)ccc3OCC(F)(F)C(F)(F)F)c2)n[nH]1"
answer_label = 1.0

[[record]]
compound = "CC1=CC(=O)/C(=C(/C)O)C(=O)O1"
answer_label = 0.0

[[record]]
compound = "O=C1O[C@H]([C@@H](O)CO)C(O)=C1O"
answer_label = 0.0

[[record]]
compound = "CCCCOC(=O)c1ccc(O)cc1"
answer_label = 0.0

[[record]]
compound = "Cc1cn([C@H]2C[C@H](N=[N+]=[N-])[C@@H](CO)O2)c(=O)[nH]c1=O"
answer_label = 0.0

[[record]]
compound = "CN(C[C@@H](CC[N+]12CCC(C3CCCCC3)(CC1)CC2)c1ccc(Cl)c(Cl)c1)C(=O)c1cc(C(F)(F)F)cc(C(F)(F)F)c1"
answer_label = 1.0


---

# Read-out: Macrophage colony-stimulating factor (MCSF), CSF1 (gene 1435)
# ASSAY_PROCEDURE: BSK_CASM3C_MCSF: BioMAP Diversity Plus: CASM3C Assay for Macrophage colony-stimulating factor (MCSF) Biomarker Activity (AID 2283044);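 also: M-CSF protein amount quantified by ELISA after 24 h exposure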
# DETAILS: primary human coronary artery smooth muscle cells; actives raise or lower the signal
The source made the active and inactive calls. The calls were made as follows: active = hit-call score of the fitted dose curve at least 0.9, where 1 is the maximum; inactive = score below 0.9.
MEASURED_ENDPOINT: AC50

[[record]]
smiles_input = "CCO[Si](CCCNC(N)=O)(OCC)OCC"
reported_measurement = "inactive"

[[record]]
smiles_input = "Cc1cc2c(cc1C(F)(F)F)N(C(=O)Nc1ccc(Oc3cccnc3C)nc1)CC2"
reported_measurement = "30.6 µM (active)"

[[record]]
smiles_input = "CCCCCCCCCCCCO"
reported_measurement = "31.2 µM (active)"

[[record]]
smiles_input = "CCCCCc1ccc(N)cc1"
reported_measurement = "inactive"


---

# Read-out: Cytochrome P450 (CYP2B6), CYP2B6 (gene 1555)
# ASSAY_PROCEDURE: LTEA_HepaRG_CYP2B6: Life Technologies and Expression Analysis (LTEA) Assay for Cytochrome P450 (CYP2B6) using HepaRG (AID 2283481)
# DETAILS: mRNA level, 48 h; actives raise or lower the signal
Activity calls are given as the source filed them. Rule for the calls: active = hit-call score of the fitted dose curve at least 0.9, where 1 is the maximum; inactive = score below 0.9.
Possible outcomes: active, inactive

[[record]]
molecule = "CCCCCCCCOc1ccc(C(=O)c2ccccc2)c(O)c1"
answer_label = "active"

[[record]]
molecule = "CCCC(=O)OCCC(C)C"
answer_label = "inactive"

[[record]]
molecule = "CCCCOC(=O)c1ccc(O)cc1"
answer_label = "inactive"

[[record]]
molecule = "CC(O)CC(C)(C)O (configuration not stated)"
answer_label = "inactive"

[[record]]
molecule = "OCCO"
answer_label = "inactive"

[[record]]
molecule = "O=C1O[C@H]([C@@H](O)CO)C(O)=C1O"
answer_label = "inactive"

[[record]]
molecule = "O=C(O)Cc1cc(I)c(Oc2ccc(O)c(I)c2)c(I)c1"
answer_label = "active"

[[record]]
molecule = "O=c1ccc2ccccc2o1"
answer_label = "active"

[[record]]
molecule = "O=C=NCCCCCCN=C=O"
answer_label = "inactive"

[[record]]
molecule = "Cc1c2ccccc2c(C)c2c1ccc1ccccc12"
answer_label = "active"

[[record]]
molecule = "CN(C)c1ccc(C(=C2C=CC(=[N+](C)C)C=C2)c2ccc(N(C)C)cc2)cc1"
answer_label = "active"

[[record]]
molecule = "Cc1cc(F)ccc1-c1cc(N2CC[C@@H](O)[C@H]2CO)ncc1N(C)C(=O)C(C)(C)c1cc(C(F)(F)F)cc(C(F)(F)F)c1"
answer_label = "active"


---

# Read-out: Phosphatase and tensin (PTEN), PTEN (gene 5728)
# ASSAY_PROCEDURE: LTEA_HepaRG_PTEN: Life Technologies and Expression Analysis (LTEA) Assay for Phosphatase and tensin (PTEN) using HepaRG (AID 2283523)
# DETAILS: mRNA level, 48 h; actives raise or lower the signal
Calls of active or inactive are those of the source. Rule for the calls: active = hit-call score of the fitted dose curve at least 0.9, where 1 is the maximum; inactive = score below 0.9.
MEASURED_ENDPOINT: AC50

[[record]]
compound = "Cc1occc1C(=O)Nc1ccc(C(=O)N2CCC(F)(F)/C(=C\\C(=O)N3CCC(N4CCCCC4)CC3)c3ccccc32)cc1"
reported_measurement = "inactive"

[[record]]
compound = "CC(C)(C)c1csc(-c2cc3cc(OCc4ccccc4CC(=O)O)ccc3o2)n1"
reported_measurement = "80.1 µM (active)"

[[record]]
compound = "CN(C[C@@H](CC[N+]12CCC(C3CCCCC3)(CC1)CC2)c1ccc(Cl)c(Cl)c1)C(=O)c1cc(C(F)(F)F)cc(C(F)(F)F)c1"
reported_measurement = "71.1 µM (active)"

[[record]]
compound = "OC12N=C(c3ccccc3)SC1Cc1cc(Cl)ccc12 (centres undefined)"
reported_measurement = "inactive"


---

# ASSAY_PROCEDURE: ATG_MRE_CIS: Attagene CIS-FACTORIAL HepG2 Assay for human Metal Responsive Element (MRE) (AID 2282954)
# DETAILS: HepG2 MRE cis-reporter transcription, Attagene multiplex; actives raise or lower the signal
Active and inactive are the calls of the source. How the source made its calls: active means hit-call score of the fitted dose curve at least 0.9, where 1 is the maximum; inactive means score below 0.9.
Possible outcomes: active, inactive

[[record]]
smiles_input = "CC(C)(C)c1csc(-c2cc3cc(OCc4ccccc4CC(=O)O)ccc3o2)n1"
answer_label = "active"

[[record]]
smiles_input = "CO[C@H]1/C=C/O[C@@]2(C)Oc3c(C)c(O)c4c(O)c(c(/C=N/N5CCN(C)CC5)c(O)c4c3C2=O)NC(=O)/C(C)=C\\C=C\\[C@H](C)[C@H](O)[C@@H](C)[C@@H](O)[C@@H](C)[C@H](OC(C)=O)[C@@H]1C"
answer_label = "inactive"

[[record]]
smiles_input = "CC[C@@H]1C[C@H](N(Cc2cc(C(F)(F)F)cc(C(F)(F)F)c2)C(C)=O)c2cc(C(F)(F)F)ccc2N1C(=O)OC(C)C"
answer_label = "inactive"

[[record]]
smiles_input = "Oc1ccc2ccccc2c1"
answer_label = "inactive"

[[record]]
smiles_input = "CN(C[C@@H](CC[N+]12CCC(C3CCCCC3)(CC1)CC2)c1ccc(Cl)c(Cl)c1)C(=O)c1cc(C(F)(F)F)cc(C(F)(F)F)c1"
answer_label = "inactive"

[[record]]
smiles_input = "O=C(O)c1ccccc1-n1cc(C(=O)O)c(=O)c2cc(Nc3c(F)cc(F)cc3Cl)c(Cl)cc21"
answer_label = "inactive"

[[record]]
smiles_input = "Cc1ncc(CO)c(CO)c1O"
answer_label = "inactive"

[[record]]
smiles_input = "CN(C)C(=O)C1(N2CCCCC2)CCN(CC[C@@]2(c3ccc(Cl)c(Cl)c3)CN(C(=O)c3ccccc3)CCO2)CC1"
answer_label = "inactive"

[[record]]
smiles_input = "O=C1O[C@H]([C@@H](O)CO)C(O)=C1O"
answer_label = "inactive"

